B1: Gamma-crystallin S, residues 96 to 176; numbered along this chain, P22914 (parent)
chain: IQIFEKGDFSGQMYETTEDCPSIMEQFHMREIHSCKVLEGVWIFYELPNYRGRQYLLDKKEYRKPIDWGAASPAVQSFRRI

# Variants of: B1
# Assay Summary: abundance fitness (aPCA) (normalised: wild type 0, dead -1); higher = more abundant; growth selection in yeast, the domain comes from the species named
# Cond: Homo sapiens
Returns one of Condition met or Condition not met; Condition met when abundance fitness is >= -0.03.

[
  {
    "Changes": "K64Y",
    "Category Label": "Condition met"
  },
  {
    "Changes": "Q12P",
    "Category Label": "Condition met"
  },
  {
    "Changes": "L56T",
    "Category Label": "Condition not met"
  },
  {
    "Changes": "I23R",
    "Category Label": "Condition not met"
  },
  {
    "Changes": "Q12F",
    "Category Label": "Condition not met"
  },
  {
    "Changes": "Q2G",
    "Category Label": "Condition met"
  },
  {
    "Changes": "F27M",
    "Category Label": "Condition met"
  },
  {
    "Changes": "C20Q",
    "Category Label": "Condition met"
  },
  {
    "Changes": "Q26Y",
    "Category Label": "Condition met"
  },
  {
    "Changes": "E18A",
    "Category Label": "Condition not met"
  },
  {
    "Changes": "L38C",
    "Category Label": "Condition not met"
  }
]

Value source: the Human Domainome abundance scans (Beltran et al. 2025)
